# test-system: A1 AdoR (Cavia porcellus (Guinea pig))
# Sequence (P47745 whole entry): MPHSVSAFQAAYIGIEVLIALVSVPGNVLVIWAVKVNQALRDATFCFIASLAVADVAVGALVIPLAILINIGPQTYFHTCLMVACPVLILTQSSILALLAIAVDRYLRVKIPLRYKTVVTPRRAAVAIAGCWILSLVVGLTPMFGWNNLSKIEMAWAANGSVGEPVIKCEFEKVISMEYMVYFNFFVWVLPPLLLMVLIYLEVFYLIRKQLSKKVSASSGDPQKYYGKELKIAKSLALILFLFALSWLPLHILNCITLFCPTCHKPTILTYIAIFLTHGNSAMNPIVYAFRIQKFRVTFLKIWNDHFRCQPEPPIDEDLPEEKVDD
pEC50: −log10 of the molar value.
readout-label: pEC50

> print(dat)
                                   compound                             test.system  readout.number
1  CNC(=O)c1cnn(-c2nc(N)c3ncn(C4O[C@H](CO)[C@@H](O)[C@H]4O)c3n2)c1 (stereo partly shown)  A1 AdoR (Cavia porcellus (Guinea pig))            5.40

---

# test-system: human A1AdoR (Homo sapiens (Human))
# Sequence (P30542 whole entry): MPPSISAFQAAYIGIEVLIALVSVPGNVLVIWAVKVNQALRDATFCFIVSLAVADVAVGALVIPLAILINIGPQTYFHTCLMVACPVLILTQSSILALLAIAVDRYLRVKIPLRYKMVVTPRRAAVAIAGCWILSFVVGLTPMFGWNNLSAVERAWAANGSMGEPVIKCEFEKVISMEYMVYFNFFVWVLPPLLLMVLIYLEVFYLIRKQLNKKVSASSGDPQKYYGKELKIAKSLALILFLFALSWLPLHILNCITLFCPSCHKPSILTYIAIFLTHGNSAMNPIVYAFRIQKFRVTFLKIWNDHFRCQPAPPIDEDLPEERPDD
# protocol-details: Competition binding, [3H]DPCPX/[3H]CPX sites on CHO-hA1AdoR cell membranes
# setup-conditions: in presence of Gpp(NH)p 100 μM, read-out: Binding Affinity Ki, CHO-hA1AR
readout-label: Ki

> print(dat)
                                   molecule     result
1  CNC(=O)c1cnn(-c2nc(N)c3ncn(C4O[C@H](CO)[C@@H](O)[C@H]4O)c3n2)c1 (stereo partly shown)  > 16.5 µM
